Assay: NCI Yeast Anticancer Drug Screen. Data for the rad50 strain (AID 155);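 also: 0% = growth of vehicle-only cultures of the same strain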
Conditions: S. cerevisiae rad50 strain growth inhibition; at 50.0 µM (retest, dose inferred, filed as 5.0); active compounds read high
The panel holds about 79,000 compounds, 15% with a hit somewhere; the sample as a whole holds those more often.
readout name: growth inhibition (%)
// return numeric value only (unit: %, not printed)

Here is how some compounds turned out for growth inhibition.
In [3]: df
Out[3]:
                                   compound  unit_info  measured_number
0  Cc1ccc(S(=O)(=O)N/N=C/c2c(O)ccc3ccccc23)cc1          %               86
1  O=C1C(C(O)(C(F)(F)F)C(F)(F)F)CCC1C(O)(C(F)(F)F)C(F)(F)F (stereo not given)          %               33
2  COc1ccc(/C=C2\S/C(=N/Nc3nc(-c4ccccc4)cs3)NC2=O)cc1OC          %               93
3  CCCCCCCCCCCC[N+](C)(C)Cc1ccccc1 (tested in a mixture with another compound)          %               99
4                       CC(=O)CC[N+](C)(C)C          %              100

Which growth inhibition is reported for this compound? COC(=O)C1(N2CCOCC2)CCC([C@@H](c2ccccc2)C(C)[N+](=O)[O-])C1 (stereo not given in full)
-3

And the next one, COC1=C(N=[N+]=[N-])C(=O)c2ncccc2C1=O ?
95

And the next one, C[n+]1c(-c2ccc(NC(=O)c3ccc(C(=O)Nc4ccc(-c5cn6ccccc6[n+]5C)cc4)cc3)cc2)cn2ccccc21 ?
98

And the next one, O=C1C=CC(=O)N1c1ccc(Br)cc1Cl ?
51

And the next one, Cc1ccc2oc(-c3cccc(N)c3)nc2c1 ?
10

Provenance of the data: PubChem BioAssay (NCI)
